System: heterozygous GAT-HRA corn
Assay: Postemergence effect of ALS herbicides, glyphosate and glufosinate (fresh weight, visual injury)
Conditions: 200 g/ha (glyphosate 3472 g ae/ha, glufosinate ammonium 1870 g/ha), 2 weeks after treatment, 0% no injury, 100% plant death, mean of four replications
Mark criterion met for % Visual Injury Heterozygous GAT-HRA under 10%, criterion not met if at or over.

>>> print(df.to_string())
                                   compound  assigned_category
0  COc1cc(OC)nc(NC(=O)NS(=O)(=O)c2ncccc2C(=O)N(C)C)n1      criterion met
1  COc1nc(C)nc(NC(=O)NS(=O)(=O)c2ccccc2Cl)n1  criterion not met
2  COC(=O)c1c(Cl)nn(C)c1S(=O)(=O)NC(=O)Nc1nc(OC)cc(OC)n1      criterion met
3  CCOc1ccccc1OS(=O)(=O)NC(=O)Nc1nc(OC)cc(OC)n1  criterion not met
4  COC(=O)c1cccc(C)c1S(=O)(=O)NC(=O)Nc1nc(OCC(F)(F)F)nc(N(C)C)n1      criterion met
5  CP(=O)(O)CCC(N)C(=O)O (centres unmarked) [Glufosinate ammonium]      criterion met
